The measured values listed here are drawn from the domain aggregation screens of Martell et al. (2025).

Experiment: soluble fraction after stress (log2 fold change); higher = more stays soluble; pooled small domains, quantitative proteomics
Conditions: stress: pH 4
Documented soluble fraction (log2) across a set of sequences
Keep the answer to the number alone.

Worked cases, answers included:
HMSATEPVHFDPNKSPEDMTVEELQAGILAKMANNGPVSDQMKKTVNENIWHDSLVNWLKSF :: -0.0828
HMKRAVGLDEYRDSIVLKKPEGYTEESYAAYKNAYDALMALDSKETTAEMFANAKSAFEAAQAGLVQKP :: 0.0195
HMGMTTSILDDVIGMGPKRKKALLKAFGSFGALRNATLEEIKQTHTVPEQVAEDVYAVLVQYNSKSE :: -0.171
HMLDVNLIFSRPGFSLSAAFTLHAGGITVLRGDSGSGKTTLADLLSGAIAPQKGRILSDGDIWFDAASGIN :: -0.163
HMNSEAVQNVIDKISALPDDITAKAKSQIEEARAAYEALSDSEKARVTNYSTLVAAEKKLASVVKD :: 0.121
HMQTNEAIINQAVQAAEAQNITTRSQAVDALKANGMTEAQARQLAVQRGISYDQLINELFPME :: 0.108
HMGGTFLVRILDPALNIRAQPSLTARINGVIRDKSVYTIVATSFEPKTQITWGKLKSGAGWISIGSKYVKK :: 0.0406

Below: the item to evaluate.
q: What value of soluble fraction (log2) has been reported for the following sequence? `HMSPLALLTPRELDILRAMTAGASNKEIARQFAIAETTVKIHVQHILRKLDVTTRVHAAVMASESGL`
a: -1.09
